- TEST NAME: activity coefficient (dimensionless); of the first substance listed, at infinite dilution; xn = mol fraction of the nth substance listed
- ASSAY SETUP: 312.25 K; Liquid; Chromatography; x1 = 0
MEASURE NAME: activity coefficient

Take a look at these entries with their results.
MOLECULE: CCC=O [propanal] + CCCC[N+](C)(C)C.O=S(=O)([N-]S(=O)(=O)C(F)(F)F)C(F)(F)F
MEASURE NAME: activity coefficient
ENDPOINT RESULT: 0.57
--
MOLECULE: CCCCC=O [pentanal] + CCCC[N+](C)(C)C.O=S(=O)([N-]S(=O)(=O)C(F)(F)F)C(F)(F)F
MEASURE NAME: activity coefficient
ENDPOINT RESULT: 1.65
--
MOLECULE: CCO [ethanol] + CCCC[N+](C)(C)C.O=S(=O)([N-]S(=O)(=O)C(F)(F)F)C(F)(F)F
MEASURE NAME: activity coefficient
ENDPOINT RESULT: 1.94
--
MOLECULE: C1CCCCC1 [cyclohexane] + CCCC[N+](C)(C)C.O=S(=O)([N-]S(=O)(=O)C(F)(F)F)C(F)(F)F
MEASURE NAME: activity coefficient
ENDPOINT RESULT: 3.84

Q: Entry CCCC=O [butanal] + CCCC[N+](C)(C)C.O=S(=O)([N-]S(=O)(=O)C(F)(F)F)C(F)(F)F has what activity coefficient?
Result: 0.8
